Tested on: AD38 cells
Assay: Viability of AD38 cells (Promega CellTiter-Glo)
Format: cell-based
Settings: 10 μM compound, 6 days, CellTiter-Glo luminescence normalized to DMSO control (100%)
Experimental: Example 2: Assay Measuring Activity of Compounds on Viral Production in and on Viability of AD38 Cells AD38 cells were then re-suspended with 10 mL of Treatment Medium and counted. […] At the end of compound treatment period cell viability was assessed using a Promega CellTiter-Glo protocol. […]
The entries below are paired with their reported AD38 Viability Normalized Result (cmpd/DMSO %) at 10 μM.
Just the number in %, nothing appended.

{"columns": ["structure string", "units label", "number"],
 "data": [
  ["O=C(NCc1cnc(-c2ccc(O[C@H]3CCNC3)cc2)s1)c1ccc2c(c1)NC(=O)c1ccccc1S2(=O)=O.O=C(O)C(F)(F)F", "%", 92],
  ["Cc1ncc(CNC(=O)c2ccc3c(c2)NC(=O)c2ccc(Cl)cc2S3)s1", "%", 88],
  ["CC(C)(C)c1ncc(CNC(=O)c2ccc3c(c2)NC(=O)c2ccccc2S3)s1", "%", 89],
  ["Cl.O=C(NCc1cnc(-c2ccc(OC[C@@H]3CCCN3)cc2)s1)c1ccc2c(c1)NC(=O)c1ccccc1S2(=O)=O", "%", 105]
]}

Now look at this one.
Report AD38 Viability Normalized Result (cmpd/DMSO %) at 10 μM for O=C1Nc2c(ccc(C(=O)NCc3cnc(-n4cccn4)s3)c2Cl)S(=O)(=O)c2ccccc21 please.
98
